Attribute: apparent KD of K4 kissing-loop reporter
System: K4 kissing-loop RNA reporter;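 further: bound reporter read as fluorescence of individual clusters on recovered sequencing chips by microscopy, with normalized cluster intensities fitted with a binding model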
Experiment: apparent KD of K4 kissing-loop reporter; higher = weaker reporter binding
Details: Eterna round: R107; input ligand: theophylline 20 uM

input sequence	apparent KD of K4 kissing-loop reporter, nM
AUGGGCGAGGUAACGUGGAUAUCUCGUCGCAAGGAUAUCUGGAAACAGAGAAGGUGCUACAUUACCGGCAGUGAUGUUGCUGACC	263
GGAUCCUAGGCGGCCGCCACUCCAAUUGGCCGAAAGGCCUGAUACCGAGUGAUGUUCGGUUGGAGGAGGACCGGGCCUAGGAUCC [#2 Exclusion - Tryptophan B Attempt #2 (HarryS)]	165
UACUUAUAUAUCAACUUAAAUUAUUCAGAAGGAGCGUGAUCAUUCACAGGUAGGUCGCUGAACUAGUGAUGUUAGUUUUAAUUUU [JR_Nu_ExcArginiA_Sub023]	126
GCAACAUUGGUAGGAUAUCAUUCUGAGUGAUGUUCAGGGUUCAGCUAACGAAAGUUAGUUGUACCAUGAGAAGGGCUAAUGUUGC [Omei KL FMN B SS A v5]	820
GUGCGUAAGUGAUGUUUACGUCAGCUCCGCAAGGAUAUCCUGAUUAGGAGAAGGUGCGGGAACUAAAGACGCUCGUUCUAGCAGG [theeternabot_exclusion_KL_FMN_A_33]	168
UGACUACAUAAGGAAUAAUCCUAGUGAUGUUAGGAUAUGCUGAUAAGCAGAAGGAACGGAGAUCGAAGGAUCUCAUAUGUAGUCU [whbob_Ex_FMNA__2th194]	121

Data origin: the supplement of paper PMC9170038
